tested on: PSMA-expressing LNCaP tumor xenografts; assay: Ex vivo biodistribution in LNCaP tumor-bearing mice; conditions: LNCaP tumor-bearing mice, 1 h post injection, mean ± SD, n = 4
measurement_name: Lungs uptake (%ID/g)

- N#C[C@@H]1CC(F)(F)CN1C(=O)CNC(=O)c1ccnc2ccc(OCCCc3cn(CC(=O)N[C@@H](CCCCNC(=O)CN4CCN(CC(=O)[O-])CCN(CC(=O)[O-])CCN(CC(=O)[O-])CC4)C(=O)NCC(=O)NC[C@H]4CC[C@H](C(=O)N[C@@H](Cc5c6ccccc6cc6ccccc56)C(=O)NCCCC[C@H](NC(=O)N[C@@H](CCC(=O)O)C(=O)O)C(=O)O)CC4)nn3)cc12.[68Ga+3] [[^68Ga]Ga-AV01017]: 3.76
- N#C[C@@H]1CC(F)(F)CN1C(=O)CNC(=O)c1ccnc2ccc(OCCCN3CCN(C(=O)CN4CCN(CC(=O)[O-])CCN(CC(=O)[O-])CCN(CC(=O)[O-])CC4)CC3)cc12.[68Ga+3] [[^68Ga]Ga-FAPI-04, reference compound]: 1.23
- N#C[C@@H]1CC(F)(F)CN1C(=O)CNC(=O)c1ccnc2ccc(OCc3cn(CC(=O)N[C@@H](CCCCNC(=O)CN4CCN(CC(=O)[O-])CCN(CC(=O)[O-])CCN(CC(=O)[O-])CC4)C(=O)NCC(=O)NC[C@H]4CC[C@H](C(=O)N[C@@H](Cc5c6ccccc6cc6ccccc56)C(=O)NCCCC[C@H](NC(=O)N[C@@H](CCC(=O)O)C(=O)O)C(=O)O)CC4)nn3)cc12.[68Ga+3] [[^68Ga]Ga-AV01038]: 3.74
- N#C[C@@H]1CC(F)(F)CN1C(=O)CNC(=O)c1ccnc2ccc(-c3cn(CC(=O)N[C@@H](CCCCNC(=O)CN4CCN(CC(=O)[O-])CCN(CC(=O)[O-])CCN(CC(=O)[O-])CC4)C(=O)NCC(=O)NC[C@H]4CC[C@H](C(=O)N[C@@H](Cc5c6ccccc6cc6ccccc56)C(=O)NCCCC[C@H](NC(=O)N[C@@H](CCC(=O)O)C(=O)O)C(=O)O)CC4)nn3)cc12.[68Ga+3] [[^68Ga]Ga-AV01030]: 2.93

###

test system: PSMA-expressing LNCaP tumor xenografts; assay: Ex vivo biodistribution in LNCaP tumor-bearing mice; conditions: LNCaP tumor-bearing mice, 1 h post injection, mean ± SD, n = 4
measurement_name: Salivary glands uptake

- N#C[C@@H]1CC(F)(F)CN1C(=O)CNC(=O)c1ccnc2ccc(OCCCc3cn(CC(=O)N[C@@H](CCCCNC(=O)CN4CCN(CC(=O)[O-])CCN(CC(=O)[O-])CCN(CC(=O)[O-])CC4)C(=O)NCC(=O)NC[C@H]4CC[C@H](C(=O)N[C@@H](Cc5c6ccccc6cc6ccccc56)C(=O)NCCCC[C@H](NC(=O)N[C@@H](CCC(=O)O)C(=O)O)C(=O)O)CC4)nn3)cc12.[68Ga+3] [[^68Ga]Ga-AV01017]: 5.98 ± 4.00 %ID/g
- N#C[C@@H]1CC(F)(F)CN1C(=O)CNC(=O)c1ccnc2ccc(-c3cn(CC(=O)N[C@@H](CCCCNC(=O)CN4CCN(CC(=O)[O-])CCN(CC(=O)[O-])CCN(CC(=O)[O-])CC4)C(=O)NCC(=O)NC[C@H]4CC[C@H](C(=O)N[C@@H](Cc5c6ccccc6cc6ccccc56)C(=O)NCCCC[C@H](NC(=O)N[C@@H](CCC(=O)O)C(=O)O)C(=O)O)CC4)nn3)cc12.[68Ga+3] [[^68Ga]Ga-AV01030]: 4.76 ± 1.79 %ID/g
- N#C[C@@H]1CC(F)(F)CN1C(=O)CNC(=O)c1ccnc2ccc(OCc3cn(CC(=O)N[C@@H](CCCCNC(=O)CN4CCN(CC(=O)[O-])CCN(CC(=O)[O-])CCN(CC(=O)[O-])CC4)C(=O)NCC(=O)NC[C@H]4CC[C@H](C(=O)N[C@@H](Cc5c6ccccc6cc6ccccc56)C(=O)NCCCC[C@H](NC(=O)N[C@@H](CCC(=O)O)C(=O)O)C(=O)O)CC4)nn3)cc12.[68Ga+3] [[^68Ga]Ga-AV01038]: 6.41 ± 1.19 %ID/g
- N#C[C@@H]1CC(F)(F)CN1C(=O)CNC(=O)c1ccnc2ccc(OCCCN3CCN(C(=O)CN4CCN(CC(=O)[O-])CCN(CC(=O)[O-])CCN(CC(=O)[O-])CC4)CC3)cc12.[68Ga+3] [[^68Ga]Ga-FAPI-04, reference compound]: 1.36 ± 0.92 %ID/g
